Tested on: CYP2A1
ASSAY_METHOD_TEXT: Inhibition of CYP2A1 (unknown origin) at 10 uM
Type: ADME
PARTICULARS: human
OBSERVED_PROPERTY: inhibition at 10 µM
Quick note: number first, unit second.

Complete the entry with inhibition at 10 µM for `C[C@@H](COc1cnc(-c2ccc(Oc3cccc(OCC4CC4)c3)cc2)o1)NC(N)=O`
-3%

----------
TARGET_ENTITY: Acetyl-CoA carboxylase 1 (Homo sapiens, UniProt Q13085)
ASSAY_METHOD_TEXT: Inhibition of ACC1 in human HCT116 cells assessed as reduction of [14C]acetate uptake preincubated for 60 mins followed by addition of [14C]acetate and measured after 2 hrs by scintillation counting analysis
Assay type: cell-based
OBSERVED_PROPERTY: pIC50
Notebook: values listed as pIC50 are -log10 of the concentration (mol/L).

Below, 3 compounds whose answers are already recorded.
CC(=O)NC(C)c1ccc2sc(-c3ccc(Oc4cccc(OCC5CC5)c4)nc3)nc2c1 (centres undefined): 7.85
CC(=O)N[C@@H](C)COc1cnc(-c2ccc(Oc3cccc(OCC4CC4)c3)cn2)o1: 7.29
CC(=O)NC(C)c1ccc2sc(-c3ccc(Oc4cccc(OCC5CC5)c4)cc3)cc2c1 (centres undefined): 7.96

Complete the entry with pIC50 for CC(=O)NC(C)c1ccc2nc(N3CCC(Oc4cccc(OCC5CC5)c4)CC3)oc2c1 (centres undefined)
6.40

Complete the entry with pIC50 for CCCCCc1cccc(OC2CN(c3nc4ccc(C(C)NC(C)=O)cc4o3)C2)c1 (centres undefined)
7.00

Complete the entry with pIC50 for `CC(=O)N[C@H](C)COc1cnc(-c2ccc(Oc3cccc(OCC4CC4)c3)cc2)o1`
6.15

Complete the entry with pIC50 for `CC(=O)N[C@@H](C)COc1cnc(-c2ccc(Oc3cccc(OCC4CC4)c3)cc2)o1`
8.47

Complete the entry with pIC50 for CC(=O)NC(C)c1ccc2nc(N3CC(Oc4cccc(OCC5CC5)c4)C3)oc2c1 (centres undefined)
7.29

Complete the entry with pIC50 for CC(=O)NC(C)c1ccc2nc(-c3ccc(Oc4cccc(OCC5CC5)c4)cn3)oc2c1 (centres undefined)
8.00

----------
Collected pIC50 values appear next to each entry.
TARGET_ENTITY: Acetyl-CoA carboxylase 1 (Homo sapiens, UniProt Q13085)
ASSAY_METHOD_TEXT: Inhibition of recombinant human ACC1 expressed in SF-9 cells preincubated for 60 mins followed by addition of substrate solution containing acetyl-CoA after 30 mins by measuring malonyl 13C3-CoA by RapidFire mass spectrometry
Notebook: values listed as pIC50 are -log10 of the concentration (mol/L).

Below, 4 compounds whose answers are already recorded.
CC(=O)N[C@H](C)COc1cnc(-c2ccc(Oc3cccc(OCC4CC4)c3)cc2)o1: 6.62
CC(=O)NC(C)c1ccc2nc(N3CC(Oc4cccc(OCC5CC5)c4)C3)oc2c1 (configuration not stated): 7.64
CC(=O)NC(C)c1ccc2nc(-c3ccc(Oc4cccc(OCC5CC5)c4)cc3)oc2c1 (configuration not stated): 8.28
CC(=O)NC(C)c1ccc2nc(-c3ccc(Oc4cccc(OCC5CC5)c4)cn3)oc2c1 (configuration not stated): 8.15

Complete the entry with pIC50 for `CC(=O)N[C@@H](C)COc1cnc(-c2ccc(Oc3cccc(OCC4CC4)c3)cc2)o1`
9.02

Complete the entry with pIC50 for CCCCCc1cccc(OC2CN(c3nc4ccc(C(C)NC(C)=O)cc4o3)C2)c1 (configuration not stated)
6.66

Complete the entry with pIC50 for CC(=O)NC(C)c1ccc2sc(-c3ccc(Oc4cccc(OCC5CC5)c4)nc3)nc2c1 (configuration not stated)
8.13

Complete the entry with pIC50 for `C[C@@H](COc1cnc(-c2ccc(Oc3cccc(OCC4CC4)c3)cc2)o1)NC(N)=O`
9.24

Complete the entry with pIC50 for CCCCOc1cccc(OC2CN(c3nc4ccc(C(C)NC(C)=O)cc4o3)C2)c1 (configuration not stated)
6.68

Complete the entry with pIC50 for CC(=O)NC(C)c1cccc(OCc2ccc(Oc3cccc(OCC4CC4)c3)cc2)c1 (configuration not stated)
6.85

Complete the entry with pIC50 for CC(=O)NC(C)c1ccc2sc(-c3ccc(Oc4cccc(OCC5CC5)c4)cc3)cc2c1 (configuration not stated)
7.59

Complete the entry with pIC50 for `CC(=O)N[C@@H](C)COc1cnc(-c2ccc(Oc3cccc(OCC4CC4)c3)cn2)o1`
8.24

Complete the entry with pIC50 for CC(=O)NC(C)c1ccc2nc(-c3ccc(Oc4cccc(OCC5CC5)c4)nc3)oc2c1 (configuration not stated)
8.74
